Attribution: PubChem BioAssay AID933

Target: Thyrotropin receptor (Homo sapiens)
Assay: Secondary Concentration-Response Assay for Agonists of the Thyroid Stimulating Hormone Receptor: HTRF Activity Detection;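 further: HEK 293 cells stably expressing human TSHR with RO 20-1724 phosphodiesterase inhibitor; % of control where 0% means no effect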
Details: HEK293-TSHR cells, cAMP HTRF ratio, 30 min; series mostly up to 91.7 µM
Experimental: NIH Chemical Genomics Center [NCGC] NIH Molecular Libraries Screening Centers Network [MLSCN] PI Name: Dr. Marvin Gershengorn, NIH Confirmation of Thyroid Stimulating Hormone Receptor Agonists […] A confirmatory assay of putative TSHR agonists was conducted on a different TSHR transfected HEK 293 cell line, using an orthogonal detection technology to measure cAMP stimulation: antibody-based Homogeneous Time Resolved Fluorescence (HTRF). […] Homogeneous Time Resolved Fluorescence (HTRF) cAMP Assay. […]
Records with an inconclusive call do not appear. The source made the active and inactive calls. The call rests on the fitted dose curve; in most records, active means well fitted activation curve with a large enough effect in the signal ratio, with a control signal flat; inconclusive means small, poorly fitted or top-dose-only effect, or a change in a side signal; inactive means flat fitted curve, though single readings scatter; the % refers to the signal ratio.
outcome-measure: activation

Reference set (9 entries):
[[record]]
compound = "CCOC(=O)COc1c(OC)cc(Cl)cc1C1Nc2ccccc2C(=O)N1c1ccccc1 (stereo not given)"
recorded_result = "inactive"

[[record]]
compound = "COc1ccc(C2Nc3ccccc3C(=O)N2c2ccccc2)cc1COc1ccccn1 (stereo not given)"
recorded_result = "inactive"

[[record]]
compound = "COc1ccc(C2Nc3ccccc3C(=O)N2Cc2ccccc2)cc1Oc1ccc(NC(C)=O)cc1 (stereo not given)"
recorded_result = "inactive"

[[record]]
compound = "COc1ccc(C2Nc3ccccc3C(=O)N2Cc2ccc(C(F)(F)F)cc2)cc1COc1ccc(NC(C)=O)cc1 (stereo not given)"
recorded_result = "inactive"

[[record]]
compound = "CCN(CC)CCN1C(=O)c2ccccc2NC1c1ccc(F)cc1 (stereo not given)"
recorded_result = "inactive"

[[record]]
compound = "O=C1C2C3CCCC3=C3CCCC3C2C(=O)N1c1ccccc1Cl (stereo not given)"
recorded_result = "inactive"

[[record]]
compound = "COc1cccc(OCc2cc(C3Nc4ccccc4C(=O)N3c3ccccc3)ccc2OC)c1 (stereo not given)"
recorded_result = "inactive"

[[record]]
compound = "CCCN1C(=O)c2ccccc2NC1c1ccc(OC)c(COc2ccc([N+](=O)[O-])c(C)c2)c1 (stereo not given)"
recorded_result = "inactive"

[[record]]
compound = "Oc1ccccc1Cn1c(-c2ccccc2O)nc2ccccc21"
recorded_result = "-0.344% [at 0.00035 µM] (inactive)"


Moving on to another compound below.
Consider CN(Cc1ccco1)C(=O)Cn1c(=O)oc2cc(S(=O)(=O)NCc3ccccc3)ccc21 . Its measured activation is 0.961% [at 0.00035 µM] (inactive)
